Taken from patent US9597407B2.

System: bacteria
Experiment: Binding of targeting peptides to microorganisms (Table 3)
Details: microorganism bound by the targeting peptide; binding in aqueous buffers chosen by peptide solubility, preferably 1x PBS
MEASURE: Target(s)

The examples below pair each entry with its known result.
PF-282 (QNNDTSAWCGSAHKNGNS; Peptide with targeting and/or antimicrobial activity) | S. mutans
PF-295 (NIQVYESECGNYIFKKSDESFLIDIFDKNGTH; Peptide with targeting and/or antimicrobial activity) | C. difficile
PF-158 (VRLESRPADLPE; Peptide with targeting and/or antimicrobial activity) | S. epidermidis
PF-311 (IDAVTKKKTTCMIRAPTKIPIAHTDN; Peptide with targeting and/or antimicrobial activity) | C. difficile
HIKETR (Peptide with targeting and/or antimicrobial activity) [PF-222] | S. epidermidis
PF-231 (AVRDFKKSVREEDEAASLNSPRTIDAQVKTSESTSVKS; Peptide with targeting and/or antimicrobial activity) | S. mutans

Q: Name the recorded Target(s) for PF-256 (EYFKQVYVKNEKIYSFWICKDLSPKEAAKRAEDILVKLK; Peptide with targeting and/or antimicrobial activity) .
Ans: S. epidermidis

Q: Name the recorded Target(s) for PF-351 (YLFFKGKKVAEEEATKDEVKR; Peptide with targeting and/or antimicrobial activity) .
Ans: S. mutans

Q: Name the recorded Target(s) for PF-237 (YVKPKVGVHE; Peptide with targeting and/or antimicrobial activity) .
Ans: S. epidermidis

Q: Name the recorded Target(s) for PF-097 (QPTQGEQGTRPRRPTPMRGLLI; Peptide with targeting and/or antimicrobial activity) .
Ans: C. jeikeium

Q: Name the recorded Target(s) for PF-276 (LDLALSTNSLNLEGFSF; Peptide with targeting and/or antimicrobial activity) .
Ans: S. epidermidis

---

Tested on: bacteria
Test: Binding of targeting peptides to microorganisms (Table 3)
Conditions: microorganism bound by the targeting peptide; binding in aqueous buffers chosen by peptide solubility, preferably 1x PBS
MEASURE: Target(s)

PF-213 (MTTGVDFIIEKV; Peptide with targeting and/or antimicrobial activity) | S. epidermidis
PF-230 (EDKPTNTIQEIKPVKWQ; Peptide with targeting and/or antimicrobial activity) | S. mutans
PF-154 (GIKKSKHPSTDDYVVKTTIDSL; Peptide with targeting and/or antimicrobial activity) | S. mutans
PF-304 (LVKDTSDIKNDLNNIEIVTSKNSNDIAKLKSVK; Peptide with targeting and/or antimicrobial activity) | S. mutans
VWENRKKYLENEIERHNVFLKLGQEVIKGLNALASRGR [PF-257] | S. epidermidis

Q: Name the recorded Target(s) for PF-268 (EVLLSDLRPDIFSET; Peptide with targeting and/or antimicrobial activity) .
Ans: S. mutans

---

System: microorganisms
Experiment: Morphology, biofilm and growth disruption by peptides (Table 5)
Assay type: cell-based
Parameters: key: A: Peptide aggregates; B: Less hyphal formation; Clumps; Diffuse clumps and small polyps; F: Diffuse growth; H: Thin; I: Growth inhibition; Microcolony formation; Rippled; Small polyps; Thick; W: Halo formation on top, microlonies on bottom
Details: S. mutans
MEASURE: Organism, effect (morphology, biofilm and growth disruption)

KKFKIFVIINWFYHKYIILNFEENF [PF-C085] | S. mutans (F)
PF-C084 (FFSVIFLFGLNYLICNSPLFNILR; Peptide with targeting and/or antimicrobial activity) | S. mutans (F)
PF-C135 (KNTHAYLRVLRLSSLILSYQASVYPLFAYLCQQKDY; Peptide with targeting and/or antimicrobial activity) | S. mutans (F)

---

Tested on: bacteria
Assay: Binding of targeting peptides to microorganisms (Table 3)
Settings: peptide binding in aqueous buffers varied by peptide solubility; preferably 1x PBS
MEASURE: Target(s) (microorganism bound by the targeting peptide)

The examples below pair each entry with its known result.
1T-53 (SDILAEMFEKGELQTLVKDAAAKANA; Peptide with targeting and/or antimicrobial activity) [Peptide 1T-53] | P. aeruginosa
1T-35 (EICLTLVFPIRGSYSEAAKFPVPIHIVEDGTVELPK; Peptide with targeting and/or antimicrobial activity) [Peptide 1T-35] | P. aeruginosa
1T-10 (SPAGLPGDGDEA; Peptide with targeting and/or antimicrobial activity) [Peptide 1T-10] | M. xanthus
1T-80 (GGNLGPGFGVIIP; Peptide with targeting and/or antimicrobial activity) [Peptide 1T-80] | S. pneumoniae
1T-9 (WAWAESPRCVSTRSNIHALAFRVEVAALT; Peptide with targeting and/or antimicrobial activity) [Peptide 1T-9] | M. xanthus

Q: What value of Target(s) (microorganism bound by the targeting peptide) on bacteria does 1T-76 (EMRLSKFFRDFILWRKK; Peptide with targeting and/or antimicrobial activity) [Peptide 1T-76] have?
Ans: S. pneumoniae

Q: What value of Target(s) (microorganism bound by the targeting peptide) on bacteria does 1T-8 (FSVAACGEQRAVTFVLLIEDLI; Peptide with targeting and/or antimicrobial activity) [Peptide 1T-8] have?
Ans: M. xanthus

Q: What value of Target(s) (microorganism bound by the targeting peptide) on bacteria does 1T-57 (RLEYRRLETQVEENPESGRRPMRG; Peptide with targeting and/or antimicrobial activity) [Peptide 1T-57] have?
Ans: P. aeruginosa

Q: What value of Target(s) (microorganism bound by the targeting peptide) on bacteria does 1T-50 (HSDEPIPNILFKSDSVH; Peptide with targeting and/or antimicrobial activity) [Peptide 1T-50] have?
Ans: P. aeruginosa

---

Tested on: microorganisms
Test: Morphology, biofilm and growth disruption by peptides (Table 5)
Assay type: cell-based
Set-up: key: A: Peptide aggregates; B: Less hyphal formation; Clumps; Diffuse clumps and small polyps; F: Diffuse growth; H: Thin; I: Growth inhibition; Microcolony formation; Rippled; Small polyps; Thick; W: Halo formation on top, microlonies on bottom
Settings: P. aeruginosa
MEASURE: Organism, effect (morphology, biofilm and growth disruption)

The examples below pair each entry with its known result.
PF-425 (MMELVLKTIIGPIVVGVVLRIVDKWLNKDK; Peptide with targeting and/or antimicrobial activity) | P. aeruginosa (A)
PF-577 (PFETRESFRVPVIGILGGWDYFMHP; Peptide with targeting and/or antimicrobial activity) | P. aeruginosa (A)
PF-535 (NIKTRKRALKIIKQHQRSK; Peptide with targeting and/or antimicrobial activity) | P. aeruginosa (H)
PF-746 (chain 1 FLGNSQYFTRK; chain 2 FLGNSQYFTRK; Peptide with targeting and/or antimicrobial activity) | P. aeruginosa (A)
PF-536 (MEPIPHIMIIANQIGIIIEKA; Peptide with targeting and/or antimicrobial activity) | P. aeruginosa (H)

Continue with the substance presented below.
Q: What value of Organism, effect (morphology, biofilm and growth disruption) on microorganisms does PF-454 (MSVFVPVTNIFMFIMSPIFNVNLLHFKVYI; Peptide with targeting and/or antimicrobial activity) have?
Ans: P. aeruginosa (H)

---

Test system: bacteria
Experiment: Binding of targeting peptides to microorganisms (Table 3)
Conditions: microorganism the targeting peptide binds; binding in aqueous buffers that varied with peptide solubility, preferably 1x PBS
MEASURE: Target(s)

The examples below pair each entry with its known result.
1T-201 (KRKHENVIVAEEMRVIKN; Peptide with targeting and/or antimicrobial activity) [Peptide 1T-201] | S. sanguinis
TT-308 (GLVIIPNLIALIILFSQVRQQTKDYFSNPKLSSR; Peptide with targeting and/or antimicrobial activity) | F. nucleatum
1T-192 (ILVLLALQVELDSKFQY; Peptide with targeting and/or antimicrobial activity) [Peptide 1T-192] | S. sanguinis
PF-041 (ELLVILPGFI; Peptide with targeting and/or antimicrobial activity) | MRSA

Continue with the substance presented below.
Q: Name the recorded Target(s) for TT-306 (KILNEAEGKLLKVIEKNGEIDIEEI; Peptide with targeting and/or antimicrobial activity) .
Ans: F. nucleatum

---

Tested on: bacteria
Test: Binding of targeting peptides to microorganisms (Table 3)
Conditions: peptide binding in aqueous buffers varied by peptide solubility; preferably 1x PBS
MEASURE: Target(s) (microorganism bound by the targeting peptide)

1T-74 (DIDWGRKISCAAGVAYGAIDGCATTV; Peptide with targeting and/or antimicrobial activity) [Peptide 1T-74] | S. pneumoniae
1T-83 (QKPRKNETFIGYIQRYDIDGNGYQSLPCPQN; Peptide with targeting and/or antimicrobial activity) [Peptide 1T-83] | S. pneumoniae

---

System: microorganisms
Test: Morphology, biofilm and growth disruption by peptides (Table 5)
Type: cell-based
Parameters: key: A: Peptide aggregates; B: Less hyphal formation; Clumps; Diffuse clumps and small polyps; F: Diffuse growth; H: Thin; I: Growth inhibition; Microcolony formation; Rippled; Small polyps; Thick; W: Halo formation on top, microlonies on bottom
Conditions: S. epidermidis
MEASURE: Organism, effect

PF-290 (MVHDMTNGTLIIVKH; Peptide with targeting and/or antimicrobial activity) | S. epidermidis (C)
PF-051 (RFFNFEIKKSTKVDYVFAHVDLSDV; Peptide with targeting and/or antimicrobial activity) | S. epidermidis (D)
PF-180 (SGLGDLGFSSEAK; Peptide with targeting and/or antimicrobial activity) | S. epidermidis (C)
PF-398 (ILVVLAGILLVVLSYVGISKFKMNC; Peptide with targeting and/or antimicrobial activity) | S. epidermidis (C)

Continue with the substance presented below.
Q: Name the recorded Organism, effect for PF-048 (LYFAFKKYQERVNQAPNIEY; Peptide with targeting and/or antimicrobial activity) .
Ans: S. epidermidis (D)
